# TEST_SYSTEM: HLA-A*1101 (human)
Flag rule - binding affinity ratio (IC50 of standard peptide / IC50 of test peptide) less than 0.003 flags condition met; the remaining entries get condition not met.

binder="NMSQWIRFR (modifications not checked) [HPV18 E1 428 …]" class_name="condition met"
binder="GLSFTDLVR (modifications not checked) [HPV18 E1 position 223 peptide …]" class_name="condition met"
binder="IAQLKDLLK (modifications not checked) [HPV18 E1 position 198 peptide …]" class_name="condition met"
binder="LLIRCLRCQK (modifications not checked) [HPV18 E6 101 …]" class_name="condition not met"
binder="EVFEFAFK (modifications not checked) [HPV18 E6 43 EVFEFAFK]" class_name="condition not met"

Values compiled from patent US7026443.
